Test system: basophils in whole blood from HDM allergic donors
protocol.text: Basophil Activation Test (BAT)
Format: cell-based, human
condition.summary: 1 ng/ml; blood from HDM allergic individuals (n=14)
Experimental: Basophil Activation Test (BAT) was used as a predictive in vitro assay for indication of safety/immediate hypersensitivity reactions. The BAT assay is a widely used diagnostic test that is also used for evaluation of allergenicity of allergen derived components. In short: whole blood from HDM allergic donors was stimulated for 1 h with the proteins, and the increased expression of activation markers on the surface of basophils were measured by flow cytometry. […]
Kindly supply the reported # of individuals of 14 with positive BAT test values for the records listed here.
Numbers only.

For orientation, consider the following solved cases.
A020: house dust mite protein; SEQ ID NO: 15 (Der f), 16 (Der p); Blo t SEQ ID NO: 316 printed as A0019 (protein) MSKPIFYYHPFSGPCRTVSTVAKILNVDMEMKKLDLLTKEHLNPEFLKVNPFHKVPTFVDSDGFVVDESRVIAMYLVESRKPDSFLYPKNDLKKRIQIDRWLHYDINLSTTISAPMFCVFRGHQVQDYQVEQGKETLKTLDGVMQSFEGKFLTGADQFTLADIAMYFSLNTMEVYPKYFKFDDYPNLKSWYHRVAEALKQYDTEGTIPKAIETMKQFIQQRAAEAEKH; 0
A018: house dust mite protein; SEQ ID NO: 5 (Der f), 6 (Der p), 314 (Blo t) (protein) MVKAVVVLKGDPNVSGTIFFEQQDNGPVKVTGSVQGLKPGLHGFHVHEFGDNTNGCTSAGAHYNPLNKTHGAPNDEERHVGDLGNIEANDKGVANVVIEDSLISLTGEKSIVGRSLVVHADPDDLGRGGHELSKTTGNAGGRLVCGVIGVTK; 0

API: the following record is the query input.
Short answer for A016: house dust mite protein; SEQ ID NO: 28 (Der f), 29 (Der p) (protein) MVKIGINGFGRIGRLVLRAAIKKGVEVAAINDPFLDVKYMVYMFKFDSTHGRYQGEVKEEGGLLVVDGQKIQVFQERNPAEIPWGKVGADYVVESTGVFTTIEKAKAHLAGGAKKVIISAPSADAPMYVMGVNHDKYDPKQQIISNASCTTNCLAPLAKVINDKFGIENGLMTTVHAITATQKTVDGPSGKLWRDGRGAGQNIIPASTGAAKAVGKVIPELNGKLTGMALRVPVPDVSVVDLTVTLKNPASYDEIKAAVKAAAESDHWKGILEYTDEEVVSSDFISDTHSSIFDAKAGIALTPTFVKLIAWYDNEFGYSNRVVDLIKYVASK : # of individuals of 14 with positive BAT test was 0
